Reference source for all entries: ChEMBL document CHEMBL4411272

Catalogue of IC50 values
Biological target: Epidermal growth factor receptor (Homo sapiens, UniProt P00533, L858R/T790M)
Sequence (P00533 25-1210 T790M/L858R limits assumed): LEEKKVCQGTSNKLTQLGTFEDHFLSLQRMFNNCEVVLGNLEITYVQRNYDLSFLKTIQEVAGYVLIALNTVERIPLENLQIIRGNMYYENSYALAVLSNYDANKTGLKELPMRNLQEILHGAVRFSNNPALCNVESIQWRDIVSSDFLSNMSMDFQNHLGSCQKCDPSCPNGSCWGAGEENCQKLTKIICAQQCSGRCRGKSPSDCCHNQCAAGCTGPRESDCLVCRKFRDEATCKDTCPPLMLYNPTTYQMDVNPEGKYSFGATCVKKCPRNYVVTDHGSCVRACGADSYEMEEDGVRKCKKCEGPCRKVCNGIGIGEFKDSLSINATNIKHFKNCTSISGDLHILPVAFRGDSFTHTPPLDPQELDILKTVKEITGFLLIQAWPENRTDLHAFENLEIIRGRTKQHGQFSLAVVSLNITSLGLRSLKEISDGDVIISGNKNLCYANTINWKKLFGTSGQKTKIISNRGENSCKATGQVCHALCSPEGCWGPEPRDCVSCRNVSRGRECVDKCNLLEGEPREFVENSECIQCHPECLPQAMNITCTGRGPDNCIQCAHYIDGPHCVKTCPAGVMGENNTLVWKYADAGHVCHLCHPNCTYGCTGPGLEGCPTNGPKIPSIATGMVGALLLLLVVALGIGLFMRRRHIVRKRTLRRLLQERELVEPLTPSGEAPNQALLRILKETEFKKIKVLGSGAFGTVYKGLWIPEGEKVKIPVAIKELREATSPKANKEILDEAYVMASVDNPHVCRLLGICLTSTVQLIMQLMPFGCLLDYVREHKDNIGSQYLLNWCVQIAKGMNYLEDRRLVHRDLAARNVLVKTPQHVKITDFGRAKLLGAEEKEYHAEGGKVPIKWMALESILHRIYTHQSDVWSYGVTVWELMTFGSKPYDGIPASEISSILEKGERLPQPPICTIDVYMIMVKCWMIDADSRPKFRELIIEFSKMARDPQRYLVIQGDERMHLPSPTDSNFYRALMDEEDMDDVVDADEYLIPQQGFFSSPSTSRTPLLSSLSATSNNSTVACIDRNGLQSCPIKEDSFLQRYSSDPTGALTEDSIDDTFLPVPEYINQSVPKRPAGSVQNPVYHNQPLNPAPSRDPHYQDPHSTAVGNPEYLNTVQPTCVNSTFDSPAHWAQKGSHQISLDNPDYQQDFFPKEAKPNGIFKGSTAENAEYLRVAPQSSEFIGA
Experiment: Inhibition of EGFR T790M/L858R double mutant (unknown origin) using substrate-biotin by ELISA-based mobility shift assay
quantity-measured: IC50 (nM)

> print(dat)
                            chemical.smiles  rel  recorded.measurement
1  COc1cc(N(C)CCN(C)C)c(NC(=O)C(Cl)=C(Cl)Cl)cc1Nc1nccc(-c2cn(C)c3ccccc23)n1    >                  2000
2  CC/C=C\C(=O)Nc1cc(Nc2nccc(-c3cn(C)c4ccccc34)n2)c(OC)cc1N(C)CCN(C)C    =                   177
3  C=CC(=O)Nc1cc(Nc2ncc(C#N)c(-c3cn(C)c4ccccc34)n2)c(OC)cc1N(C)CCN(C)C    =                    25
4  COc1cc(N(C)CCN(C)C)c(NC(=O)/C=C\C(C)C)cc1Nc1nccc(-c2cn(C)c3ccccc23)n1    =                   397

====

Test system: A549
Test: Antiproliferative activity against human A549 cells after 72 hrs by MTT assay
Format: functional, cell-based
Settings: A549, 72 h
Note to self: IC50 under 1000 nM means label 1, ties and anything higher get label 0.

> print(dat)
                            chemical.smiles    label
1  C=CC(=O)Nc1cc(Nc2ncc(C#N)c(-c3cn(C)c4ccc(F)cc34)n2)c(OC)cc1N(C)CCN(C)C  label 0
2  C=C(F)C(=O)Nc1cc(Nc2nccc(-c3cn(C)c4ccccc34)n2)c(OC)cc1N(C)CCN(C)C  label 0
3  C=C(Cl)C(=O)Nc1cc(Nc2nccc(-c3cn(C)c4ccccc34)n2)c(OC)cc1N(C)CCN(C)C  label 0
4  CC/C=C\C(=O)Nc1cc(Nc2nc(C)cc(-c3cn(C)c4ccccc34)n2)c(OC)cc1N(C)CCN(C)C  label 0
5  CC/C=C\C(=O)Nc1cc(Nc2ncc(C#N)c(-c3cn(C)c4ccccc34)n2)c(OC)cc1N(C)CCN(C)C  label 1
6  C=CC(=O)Nc1cc(Nc2ncc(C#N)c(-c3cn(C)c4ccccc34)n2)c(OC)cc1N(C)CCN(C)C  label 1
7  CCC/C=C\C(=O)Nc1cc(Nc2ncc(C#N)c(-c3cn(C)c4ccccc34)n2)c(OC)cc1N(C)CCN(C)C  label 1

====

Organism: Homo sapiens
Assay: Selectivity ratio of IC50 for wild-type EGFR (unknown origin) to IC50 for EGFR T790M/L858R double mutant (unknown origin)
Catalogue of Ratio IC50 values
quantity-measured: Ratio IC50

> print(dat)
                            chemical.smiles  recorded.measurement
1  CCC/C=C\C(=O)Nc1cc(Nc2ncc(C#N)c(-c3cn(C)c4ccccc34)n2)c(OC)cc1N(C)CCN(C)C                  10.2
2  C=C(Cl)C(=O)Nc1cc(Nc2ncc(C#N)c(-c3cn(C)c4ccccc34)n2)c(OC)cc1N(C)CCN(C)C                   6.9
3  CC/C=C\C(=O)Nc1cc(Nc2nccc(-c3cn(C)c4ccc(F)cc34)n2)c(OC)cc1N(C)CCN(C)C                   1.8
4  CCC/C=C\C(=O)Nc1cc(Nc2nccc(-c3cn(C)c4ccc(F)cc34)n2)c(OC)cc1N(C)CCN(C)C                   1.6

====

Tested on: A549
Experiment: Antiproliferative activity against human A549 cells after 72 hrs by MTT assay
Format: functional, cell-based
Details: A549, 72 h
quantity-measured: log10 of IC50 (log10 of the value in µM)

> print(dat)
                            chemical.smiles  quantity.measured  recorded.measurement
1  COc1cc(N(C)CCN(C)C)c(NC(=O)C=C(C)C)cc1Nc1nccc(-c2cn(C)c3ccccc23)n1      log10 of IC50                  0.61
2  CC/C=C\C(=O)Nc1cc(Nc2nccc(-c3cn(C)c4ccc(F)cc34)n2)c(OC)cc1N(C)CCN(C)C      log10 of IC50                  0.56
3  COc1cc(N(C)CCN(C)C)c(NC(=O)/C=C\C(C)C)cc1Nc1nc(C)cc(-c2cn(C)c3ccc(F)cc23)n1      log10 of IC50                  0.96
4  C/C=C\C(=O)Nc1cc(Nc2nccc(-c3cn(C)c4ccccc34)n2)c(OC)cc1N(C)CCN(C)C      log10 of IC50                 -0.18
5  C=CC(=O)Nc1cc(Nc2nc(C)cc(-c3cn(C)c4ccccc34)n2)c(OC)cc1N(C)CCN(C)C      log10 of IC50                  0.46
6  COc1cc(N(C)CCN(C)C)c(NC(=O)/C=C\C(C)C)cc1Nc1ncc(C#N)c(-c2cn(C)c3ccccc23)n1      log10 of IC50                  0.04
7  C=C(Cl)C(=O)Nc1cc(Nc2ncc(C#N)c(-c3cn(C)c4ccccc34)n2)c(OC)cc1N(C)CCN(C)C      log10 of IC50                 -0.88

====

Target: Epidermal growth factor receptor (Homo sapiens, UniProt P00533, L858R/T790M)
Experiment: Inhibition of EGFR T790M/L858R double mutant (unknown origin) using substrate-biotin by ELISA-based mobility shift assay
quantity-measured: IC50 (nM)

> print(dat)
                             chemical.smiles                             tested.system  recorded.measurement
 1  CCC/C=C\C(=O)Nc1cc(Nc2nc(C)cc(-c3cn(C)c4ccc(F)cc34)n2)c(OC)cc1N(C)CCN(C)C  Epidermal growth factor receptor (Homo sapiens, UniProt P00533, L858R/T790M)                   923
 2  COc1cc(N(C)CCN(C)C)c(NC(=O)/C=C\C(C)C)cc1Nc1ncc(C#N)c(-c2cn(C)c3ccc(F)cc23)n1  Epidermal growth factor receptor (Homo sapiens, UniProt P00533, L858R/T790M)                   360
 3  CCC/C=C\C(=O)Nc1cc(Nc2nccc(-c3cn(C)c4ccccc34)n2)c(OC)cc1N(C)CCN(C)C  Epidermal growth factor receptor (Homo sapiens, UniProt P00533, L858R/T790M)                   203
 4  C=C(F)C(=O)Nc1cc(Nc2nccc(-c3cn(C)c4ccccc34)n2)c(OC)cc1N(C)CCN(C)C  Epidermal growth factor receptor (Homo sapiens, UniProt P00533, L858R/T790M)                     6
 5  C=CC(=O)Nc1cc(Nc2nc(C)cc(-c3cn(C)c4ccccc34)n2)c(OC)cc1N(C)CCN(C)C  Epidermal growth factor receptor (Homo sapiens, UniProt P00533, L858R/T790M)                    93
 6  C=C(Cl)C(=O)Nc1cc(Nc2nccc(-c3cn(C)c4ccccc34)n2)c(OC)cc1N(C)CCN(C)C  Epidermal growth factor receptor (Homo sapiens, UniProt P00533, L858R/T790M)                    33
 7  CCC/C=C\C(=O)Nc1cc(Nc2nccc(-c3cn(C)c4ccc(F)cc34)n2)c(OC)cc1N(C)CCN(C)C  Epidermal growth factor receptor (Homo sapiens, UniProt P00533, L858R/T790M)                   7.5
 8  COc1cc(N(C)CCN(C)C)c(NC(=O)C=C(C)C)cc1Nc1nccc(-c2cn(C)c3ccccc23)n1  Epidermal growth factor receptor (Homo sapiens, UniProt P00533, L858R/T790M)                   209
 9  CC/C=C\C(=O)Nc1cc(Nc2nccc(-c3cn(C)c4ccc(F)cc34)n2)c(OC)cc1N(C)CCN(C)C  Epidermal growth factor receptor (Homo sapiens, UniProt P00533, L858R/T790M)                   388
10  CCC/C=C\C(=O)Nc1cc(Nc2nc(C)cc(-c3cn(C)c4ccccc34)n2)c(OC)cc1N(C)CCN(C)C  Epidermal growth factor receptor (Homo sapiens, UniProt P00533, L858R/T790M)                     8

====

Observed IC50 for Epidermal growth factor receptor (Homo sapiens, UniProt P00533), reported per entry below.
quantity-measured: IC50 (µM)

> print(dat)
                            chemical.smiles  rel  recorded.measurement
1  COc1cc(N(C)CCN(C)C)c(NC(=O)/C=C\C(C)C)cc1Nc1nc(C)cc(-c2cn(C)c3ccccc23)n1    >                     2
2  CC/C=C\C(=O)Nc1cc(Nc2nccc(-c3cn(C)c4ccccc34)n2)c(OC)cc1N(C)CCN(C)C    =                  1.28
3  CC/C=C\C(=O)Nc1cc(Nc2nc(C)cc(-c3cn(C)c4ccccc34)n2)c(OC)cc1N(C)CCN(C)C    =                  1.26
4  CCC/C=C\C(=O)Nc1cc(Nc2nc(C)cc(-c3cn(C)c4ccccc34)n2)c(OC)cc1N(C)CCN(C)C    =                  1.53
5  C/C=C\C(=O)Nc1cc(Nc2nccc(-c3cn(C)c4ccccc34)n2)c(OC)cc1N(C)CCN(C)C    =                 0.395
